Tested on: Plasmodium falciparum
test name: GSK_TCMDC: Inhibition of Plasmodium falciparum 3D7 in whole erythrocytes, using parasite LDH activity as an index of growth.
Type: functional, organism-based
condition: Plasmodium falciparum, 3D7
Non-standard residues stand in square brackets, D forms with d. Residues, ends and D or L forms follow the SMILES beside them. *: point of attachment. Butanoyl(4-(4-HOPh)) = O=C(CCCc1ccc(O)cc1)*
readout type: XC50 (µM)

{"compound": "COc1cc(Cc2cnc(N)nc2N)c2c(c1OC)OC(C)(C)C=C2", "data value": 1.19}
{"compound": "O=C(/C=C/c1ccc(Cl)c(Cl)c1)NCCCCCN1CCCN(C(=O)Nc2ccc(Cl)cc2)CC1", "data value": 0.735}
{"compound": "Cc1cc(-c2cccc(CNCc3ccccc3)c2)ccc1S(=O)(=O)NCCN1CCCC1", "data value": 0.732}
{"compound": "N#Cc1ccc2c(c1)CCN(CCC1CCC(NC(=O)/C=C/c3c[nH]c4c(Br)cccc34)CC1)CC2 (centres undefined)", "data value": 0.379}
{"compound": "Cc1noc(C)c1-c1cccc(CNCc2cccc(-c3ccc(-c4nc5ccccc5[nH]4)cc3)c2)c1", "data value": 0.228}
{"compound": "Cc1[nH]c(C)c(-c2ccc(OCc3cccc(C(F)(F)F)c3)nc2)c(=O)c1Br", "data value": 0.0403}
{"compound": "O=C(NCCCN1CCC(Cc2ccccc2)CC1)c1cc2c(Cl)nc3ccccc3c2s1", "data value": 0.744}
{"compound": "COc1ccc(CNCCc2cccs2)cc1-c1cccc(S(=O)(=O)NCCN2CCCC2)c1", "data value": 0.877}
{"compound": "COc1ccc2nccc([C@@H](O)CN3CCC(NCc4ccc5c(c4)oc(=S)n5C)CC3)c2c1", "data value": 0.187}
{"compound": "CCOC(=O)c1c(-c2ccccc2)nc2c(sc3ccccc32)c1O", "data value": 0.375}
{"compound": "O=C(NCC(=O)N1CCC[C@H]1C(=O)O)[C@@H](Cc1ccccc1)NC(=O)[C@@H]1CCCN1C(=O)CCCc1ccc(O)cc1 ({Butanoyl(4-(4-HOPh))}-P[dF]GP-OH)", "data value": 1.05}
{"compound": "Cc1oc(-c2ccc(Cl)cc2)cc1C(=O)NCCC1CCN(CCCCCNC(=O)/C=C/c2ccc(Cl)c(Cl)c2)CC1", "data value": 0.446}
{"compound": "COc1ccc2nccc([C@@H](O)CN3CCC(NCc4ccc5c(c4)OCCO5)CC3)c2c1", "data value": 0.288}
{"compound": "CC(C)(C)Nc1cc(C2CC2)nc(-c2ccccn2)n1", "data value": 0.679}
{"compound": "Nc1nc(N)c2c(Cc3ccccc3)cccc2n1", "data value": 0.828}
{"compound": "Cc1cc(C)c2c(c1)C(=NO)CCN2", "data value": 0.945}
{"compound": "CCCCCCNc1cc(C)nc2ccc(OC)cc12", "data value": 0.552}
{"compound": "O=C(C=Cc1ccc(Cl)c(Cl)c1)NCCCCCN1CCCC(CCCNC(=O)c2sc3ccccc3c2Cl)C1 (centres undefined)", "data value": 1.03}
{"compound": "N#CCCN1CCN(Cc2cccc(-c3ccc(-c4nc5ccccc5[nH]4)cc3)c2)CC1", "data value": 1.02}

* * *

Tested on: Plasmodium falciparum
test name: GSK_TCMDC: Inhibition of Plasmodium falciparum 3D7 in whole erythrocytes, using parasite LDH activity as an index of growth.
Format: functional, organism-based
condition: Plasmodium falciparum, 3D7
Measured XC50, listed per entry for reference.

{"compound": "O=C(Nc1cccc(C(F)(F)F)c1)c1cccc(S(=O)(=O)NCC2CCCN2CC2CCCCC2)c1 (centres undefined)", "XC50, nM": 1110}
{"compound": "COc1cccc(O)c1CNCC(O)c1cccc(C(F)(F)F)c1 (centres undefined)", "XC50, nM": 945}
{"compound": "Cc1cccc2nc(-c3ccc(-c4cccc(NC(=O)Cc5c[nH]cn5)c4)cc3)[nH]c12", "XC50, nM": 903}
{"compound": "CCCCCCCN1CCC(CC(=O)Nc2ccnc3ccc(OC)cc23)CC1", "XC50, nM": 722}
{"compound": "CCOC(=O)N[C@@H]1CN[C@@H](C#Cc2cc3c(Nc4ccc(OCc5cccc(F)c5)c(Cl)c4)ncnc3s2)C1", "XC50, nM": 1080}
{"compound": "COc1c(Br)cc(Br)cc1-c1ccc(CN2C3CCCC2CCC3)[nH]1", "XC50, nM": 1110}
{"compound": "O=S(=O)(NCCN1CCCC1)c1cccc(-c2ccccc2CNC2Cc3ccccc3C2)c1", "XC50, nM": 738}
{"compound": "O=C(/C=C/c1ccc(C(F)(F)F)cc1)NCCCCCN1CCN(C(=O)Nc2ccc(F)c(Cl)c2)CC1", "XC50, nM": 1210}
{"compound": "COCCNCc1ncsc1-c1ccc2c(Nc3cc(O)ccc3C)ccnc2c1", "XC50, nM": 705}

* * *

Test system: Plasmodium falciparum
test name: GSK_TCMDC: Inhibition of Plasmodium falciparum 3D7 in whole erythrocytes, using parasite LDH activity as an index of growth.
Assay type: functional, organism-based
condition: Plasmodium falciparum, 3D7

{"compound": "O=C(Cc1cccc(Cl)c1)N1CCc2cc3nccc(N4CCN5CCC[C@H]5C4)c3cc21", "XC50": "854 nM"}
{"compound": "COCCCNC(=O)C1CCN(C(c2ccc(Cl)cc2)c2ccc(Cl)cc2)CC1", "XC50": "920 nM"}
{"compound": "CC(Cc1ccc(NC(=O)[C@H](C)NCCc2cccc(Cl)c2)cc1)NCCc1cccc(Cl)c1 (some centres undefined)", "XC50": "663 nM"}
{"compound": "CCCCCCNC(=O)c1nn(CCN2CCC(N3CCCC3)CC2)cc1-c1ccc(Cl)c(Cl)c1", "XC50": "733 nM"}
{"compound": "Nc1cc(-c2cccc(Cl)c2)nn1-c1ccnc2cc(Cl)ccc12", "XC50": "753 nM"}
{"compound": "CC(C)CCNCc1c(O)ccc2ccccc12", "XC50": "1670 nM"}
{"compound": "COc1cccc(O)c1CN1CCC2(CCCN(Cc3ccc(F)cc3)C2)C1 (centres undefined)", "XC50": "865 nM"}
{"compound": "CCCCOc1ccccc1C(=O)NCc1csc(-c2ccccc2)n1", "XC50": "556 nM"}
{"compound": "CCOC(=O)CCCOc1cc(Cc2cnc(N)nc2N)cc(OC)c1OC", "XC50": "239 nM"}
{"compound": "CC[C@H](NC(=O)c1ccc(NC(=O)OC(C)(C)C)cc1)C(=O)N[C@@H](CO)C(=O)NCCCCc1ccccc1", "XC50": "830 nM"}
{"compound": "c1ccc(Oc2ccc(Nc3ccnc4cc(-c5csc(CN6CCCCC6)n5)ccc34)cc2)nc1", "XC50": "579 nM"}
{"compound": "N#Cc1ccc(CNCCCCCCCNCc2ccc(-c3ccccc3)cc2)cc1", "XC50": "970 nM"}
{"compound": "COc1ccc2nccc([C@@H](O)CN3CCC(NC(=O)Cn4nc(-c5ccc(C(F)(F)F)cc5)ccc4=O)CC3)c2c1", "XC50": "737 nM"}
{"compound": "Cc1cccc2nc(-c3cccc(-c4ccc(NC(=O)Nc5ccsc5)cc4)c3)[nH]c12", "XC50": "116 nM"}
{"compound": "O=C(Nc1cccc(-c2ccc(-c3nc4ccccc4[nH]3)cc2)c1)c1cnn2cccnc12", "XC50": "1060 nM"}
{"compound": "O=C(Nc1ccc2nc3n(c(=O)c2c1)CCCCC3)C(=O)N1CCC(Cc2ccccc2)CC1", "XC50": "757 nM"}
{"compound": "Cc1cc2[nH]c(-c3ccc(C(=O)NCCCN4CCN(c5cccc(Cl)c5)CC4)s3)nc2cc1Cl", "XC50": "653 nM"}
{"compound": "COc1ccc2cc(CNCCCCCCNCc3ccc4cc(OC)ccc4c3)ccc2c1", "XC50": "624 nM"}
{"compound": "O=S(=O)(NC1CCC(CN2CCC(c3c[nH]c4ccccc34)CC2)CC1)c1ccc(Cl)c(Cl)c1 (centres undefined)", "XC50": "817 nM"}
{"compound": "Cc1[nH]c2ccccc2c1C1=CCN(CCN2CCCc3c(Br)cccc3C2=O)CC1", "XC50": "659 nM"}
{"compound": "C[C@H](Cc1ccc(OCCCCCCOc2ccc(C[C@@H](C)NC(=O)[C@H](O)c3cccc(Cl)c3)cc2)cc1)NC[C@H](O)c1cccc(Cl)c1", "XC50": "381 nM"}
{"compound": "Cc1cccc(OC(C)C(=O)Nc2cc(C(F)(F)F)ccc2N2CCOCC2)c1 (centres undefined)", "XC50": "237 nM"}
{"compound": "COc1ccc(/C=C/C(=O)N2CCc3cc4nccc(N5CCN6CCC[C@H]6C5)c4cc32)cc1", "XC50": "642 nM"}
{"compound": "Cc1cc(Nc2ccc(Cl)c(Cl)c2)n2nc(C)nc2n1", "XC50": "258 nM"}
{"compound": "CCN(CC)CCCC(C)Nc1ccnc2[nH]c3ccccc3c12 (centres undefined)", "XC50": "1770 nM"}
{"compound": "NC1=NC2(CCCC2)N(c2ccc(Cl)cc2)C(N)=N1", "XC50": "414 nM"}
{"compound": "N#Cc1cccc(C(O)C2CN(CCC3CCCCC3)CCC2(O)c2ccccc2)c1 (centres undefined)", "XC50": "129 nM"}
{"compound": "CCCCCCCn1c(=N)n(CC(O)c2ccc(Cl)c(Cl)c2)c2ccccc21 (centres undefined)", "XC50": "782 nM"}
{"compound": "COc1ccc(-c2nnc(Sc3ccc(C#N)c([N+](=O)[O-])c3)n2CC(C)C)cc1", "XC50": "821 nM"}
{"compound": "Cc1cccc2nc(-c3ccc(-c4cccc(NC(=O)COc5ccccc5C(N)=O)c4)s3)[nH]c12", "XC50": "734 nM"}
{"compound": "CC(Cc1ccc(NC(=O)CCNCc2ccccc2)cc1)NCCc1cccc(Cl)c1 (centres undefined)", "XC50": "147 nM"}
{"compound": "Cc1c(C(=O)C2CC2CN2CCC(N3CCCCC3)CC2)sc2ccccc12 (centres undefined)", "XC50": "1020 nM"}
{"compound": "FC(F)(F)c1ccc2[nH]c(-c3ccc(-c4cccc(CNCCN5CCNCC5)c4)cc3)nc2c1", "XC50": "1030 nM"}
{"compound": "COc1cccc(NC(=O)NC2CCN(c3ccnc(Nc4cc(OC)c(OC)c(OC)c4)n3)C2)c1 (centres undefined)", "XC50": "856 nM"}
{"compound": "CC(C)(C)c1ccc(CN2CCC(NC(=O)c3ccc(-c4cccc(Cl)c4)s3)CC2)cc1", "XC50": "1070 nM"}
{"compound": "O=C(/C=C/c1ccc(Cl)c(Cl)c1)NCCCCCN1CCC(NC(=O)Nc2ccccc2F)CC1", "XC50": "839 nM"}
{"compound": "COc1cc(Cc2cnc(N)nc2N)cc(OCc2cccc(C(=O)O)c2)c1OC", "XC50": "835 nM"}
{"compound": "Cc1cc(N[C@@H](CC(C)C)C(=O)NCc2cccs2)nc(Nc2ccccc2)n1", "XC50": "1130 nM"}
{"compound": "Cc1cc2ncn(-c3nccc(NCc4ccc(F)c(C)c4)n3)c2cc1C", "XC50": "990 nM"}
